# System: large crabgrass (Digitaria sanguinalis)
# experimental_protocol: Test A postemergence, large crabgrass
# Type: in vivo
# run_parameters: 500 g ai/ha, 0 to 100 scale (0 no effect, 100 complete control)
We use 80 as the dividing line for Plant response rating, Crabgrass, Large: on or above the line is criterion met, below is criterion not met.

compound	qualitative_label
CCn1c(=O)c(CS(=O)(=O)C2=NOC(C)(C)C2)nc2ccccc21 [Compound 28]	criterion not met
Cn1c(=O)c(C[S+]([O-])C2=NOC(C)(C)C2)nc2ccccc21 (centres unmarked) [Compound 24]	criterion not met
CC1(C)CC(S(=O)(=O)Cc2c(C(F)(F)Cl)nc3n(c2=O)CCC3)=NO1 [Compound 18]	criterion met
CC1(C)CC([S+]([O-])Cc2c(C(F)(F)F)nc3n(c2=O)CCCO3)=NO1 (centres unmarked) [Compound 3]	criterion not met
CC1(C)CC([S+]([O-])Cc2c(C(F)(F)F)nc3cnccn3c2=O)=NO1 (centres unmarked) [Compound 54]	criterion not met
CC1(C)CC(S(=O)(=O)Cc2c(C(F)(F)F)nc3cnccn3c2=O)=NO1 [Compound 52]	criterion not met

====

# Test system: velvetleaf (Abutilon theophrasti)
# experimental_protocol: Test B preemergence, velvetleaf
# Assay type: in vivo
# run_parameters: Preemergence, 31 g ai/ha; scale 0 to 100
Listed next: entries and their corresponding Plant response rating, Velvetleaf.
reported_endpoint: Plant response rating, Velvetleaf

CC1(C)CC(S(=O)(=O)Cc2c(C(F)(F)F)nc3n(c2=O)CCCC3)=NO1 0
CC1(C)CC(S(=O)(=O)Cc2c(C(F)(F)F)nc3n(c2=O)CCO3)=NO1 0
CC1(C)CC(S(=O)(=O)Cc2c(C(F)(F)C(F)(F)F)nc3n(c2=O)CCC3)=NO1 0
CC1(C)CC(S(=O)(=O)Cc2c(C(F)(F)F)nc3n(c2=O)CCC3)=NO1 0
CC1(C)CC(S(=O)(=O)Cc2c(C(F)(F)Cl)nc3n(c2=O)CCC3)=NO1 0
CC1(C)CC(S(=O)(=O)Cc2c(C(F)(F)F)nc3n(c2=O)CCS3)=NO1 0
CC1(C)CC(S(=O)(=O)Cc2c(C(F)(F)C(F)(F)F)nc3n(c2=O)CCCC3)=NO1 0
CC1(C)CC(S(=O)(=O)Cc2c(C(F)(F)F)nc3ccsn3c2=O)=NO1 0

====

# System: Surinam grass (Brachiaria decumbens)
# experimental_protocol: Test B preemergence, Surinam grass
# Assay type: in vivo
# run_parameters: Preemergence, 62 g ai/ha; scale 0 to 100
# From the text: […]
reported_endpoint: Plant response rating, Surinam Grass

CC1(C)CC(S(=O)(=O)Cc2c(C(F)(F)F)nc3ccsn3c2=O)=NO1 95
CC1(C)CC(S(=O)(=O)Cc2c(C(F)(F)F)nc3n(c2=O)CCS3)=NO1 98
CC1(C)CC(S(=O)(=O)Cc2c(C(F)(F)F)nc3n(c2=O)CCC3)=NO1 0
CC1(C)CC(S(=O)(=O)Cc2c(C(F)(F)C(F)(F)F)nc3n(c2=O)CCC3)=NO1 90
CC1(C)CC(S(=O)(=O)Cc2c(C(F)(F)F)nc3n(c2=O)CCCC3)=NO1 100
CC1(C)CC(S(=O)(=O)Cc2c(C(F)(F)Cl)nc3n(c2=O)CCC3)=NO1 75
CC1(C)CC(S(=O)(=O)Cc2c(C(F)(F)C(F)(F)F)nc3n(c2=O)CCCC3)=NO1 50
CC1(C)CC(S(=O)(=O)Cc2c(C(F)(F)F)nc3n(c2=O)CCO3)=NO1 80

====

# Tested on: wheat (Triticum aestivum)
# experimental_protocol: Test A preemergence, wheat
# Type: in vivo
# run_parameters: 500 g ai/ha, 0 to 100 scale (0 no effect, 100 complete control)
Listed next: entries and their corresponding Plant response rating, Wheat.

compound	Plant response rating, Wheat
Cn1c(=O)c(CS(=O)(=O)C2=NOC(C)(C)C2)c(C(F)(F)F)c2ccccc21	0
CC1(C)CC([S+]([O-])Cc2c(C(F)(F)F)nc3n(c2=O)CCCO3)=NO1 (stereo not shown)	0
CC1(C)CC([S+]([O-])Cc2c(C(F)(F)Cl)nc3n(c2=O)CCCS3)=NO1 (stereo not shown)	0
Cc1con2c(=O)c(C[S+]([O-])C3=NOC(C)(C)C3)c(C(F)(F)F)nc12 (stereo not shown)	0
CC1(C)CC(S(=O)(=O)Cc2c(C(F)(F)C(F)(F)F)nc3n(c2=O)CCCO3)=NO1	20
CC1(C)CC(S(=O)(=O)Cc2c(C(F)(F)F)nc3ccon3c2=O)=NO1	0
CC1(C)CC([S+]([O-])Cc2c(C(F)(F)F)nc3n(c2=O)CCC3)=NO1 (stereo not shown)	30
CCn1c(=O)c(CS(=O)(=O)C2=NOC(C)(C)C2)nc2ccccc21	0
CC1(C)CC([S+]([O-])Cc2c(C(F)(F)F)nc3n(c2=O)CCS3)=NO1 (stereo not shown)	0
CC1(C)CC(S(=O)(=O)Cc2c(C(F)(F)F)nc3n(c2=O)CCC3)=NO1	60
Cn1c(=O)c(C[S+]([O-])C2=NOC(C)(C)C2)nc2ccccc21 (stereo not shown)	0
CCn1c(=O)c(C[S+]([O-])C2=NOC(C)(C)C2)nc2ccccc21 (stereo not shown)	0
CC1(C)CC(S(=O)(=O)Cc2c(C(F)(F)F)nc3ccsn3c2=O)=NO1	0
CC1(C)CC(S(=O)(=O)Cc2c(C(F)(F)C(F)(F)F)nc3n(c2=O)CCCC3)=NO1	40
Cn1c(=O)c(CS(=O)(=O)C2=NOC(C)(C)C2)nc2ccccc21	0
CCn1c(=O)c(CS(=O)(=O)C2=NOC(C)(C)C2)nc2cccnc21	0

====

# Tested on: barnyardgrass (Echinochloa crus-galli)
# experimental_protocol: Test A preemergence, barnyardgrass
# Assay type: in vivo
# run_parameters: 125 g ai/ha, 0 to 100 scale (0 no effect, 100 complete control)

compound	Plant response rating, Barnyardgrass
Cc1cc2nc(C(F)(F)F)c(C[S+]([O-])C3=NOC(C)(C)C3)c(=O)n2o1 (stereo not shown)	0
CC1(C)CC(S(=O)(=O)Cc2c(C(F)(F)F)nc3n(c2=O)CCCO3)=NO1	70
CC1(C)CC(S(=O)(=O)Cc2c(C(F)(F)F)nc3ccccn3c2=O)=NO1	60
CC1(C)CC([S+]([O-])Cc2c(C(F)(F)F)nc3n(c2=O)CCS3)=NO1 (stereo not shown)	0
CCn1c(=O)c(C[S+]([O-])C2=NOC(C)(C)C2)nc2cccnc21 (stereo not shown)	0
CC1(C)CC([S+]([O-])Cc2c(C(F)(F)F)nc3cnccn3c2=O)=NO1 (stereo not shown)	0
CC1(C)CC(S(=O)(=O)Cc2c(C(F)(F)C(F)(F)F)nc3n(c2=O)CCCC3)=NO1	90
CC1(C)CC(S(=O)(=O)Cc2c(C(F)(F)F)nc3n(c2=O)CCC3)=NO1	60
Cc1con2c(=O)c(C[S+]([O-])C3=NOC(C)(C)C3)c(C(F)(F)F)nc12 (stereo not shown)	0
CC1(C)CC([S+]([O-])Cc2c(C(F)(F)F)nc3ccon3c2=O)=NO1 (stereo not shown)	10
Cc1con2c(=O)c(CS(=O)(=O)C3=NOC(C)(C)C3)c(C(F)(F)F)nc12	0
Cn1c(=O)c(C[S+]([O-])C2=NOC(C)(C)C2)nc2ccccc21 (stereo not shown)	0
Cn1c(=O)c(CS(=O)(=O)C2=NOC(C)(C)C2)c(C(F)(F)F)c2ccccc21	0
CC1(C)CC([S+]([O-])Cc2c(C(F)(F)Cl)nc3n(c2=O)CCCS3)=NO1 (stereo not shown)	0
CC1(C)CC([S+]([O-])Cc2c(C(F)(F)C(F)(F)F)nc3n(c2=O)CCC3)=NO1 (stereo not shown)	50
CC1(C)CC([S+]([O-])Cc2c(C(F)(F)C(F)(F)F)nc3n(c2=O)CCCS3)=NO1 (stereo not shown)	0

====

Listed next: entries and their corresponding Plant response rating, Russian Thistle.
# Test system: Russian thistle (Salsola kali)
# experimental_protocol: Test B preemergence, Russian thistle
# Assay type: in vivo
# run_parameters: 62 g ai/ha, scale 0 to 100
# Excerpt: […]
reported_endpoint: Plant response rating, Russian Thistle

CC1(C)CC(S(=O)(=O)Cc2c(C(F)(F)F)nc3n(c2=O)CCO3)=NO1 0
CC1(C)CC(S(=O)(=O)Cc2c(C(F)(F)F)nc3n(c2=O)CCCC3)=NO1 0
CC1(C)CC(S(=O)(=O)Cc2c(C(F)(F)C(F)(F)F)nc3n(c2=O)CCC3)=NO1 30
CC1(C)CC(S(=O)(=O)Cc2c(C(F)(F)C(F)(F)F)nc3n(c2=O)CCCC3)=NO1 65

====

# System: barnyardgrass (Echinochloa crus-galli)
# experimental_protocol: Test A postemergence, barnyardgrass
# Format: in vivo
# run_parameters: 125 g ai/ha, 0 to 100 scale (0 no effect, 100 complete control)

molecule	Plant response rating, Barnyardgrass
CC1(C)CC(S(=O)(=O)Cc2c(C(F)(F)C(F)(F)F)nc3n(c2=O)CCCO3)=NO1 [Compound 55]	70
CC1(C)CC([S+]([O-])Cc2c(C(F)(F)F)nc3cccnn3c2=O)=NO1 (centres unmarked) [Compound 46]	0
Cn1c(=O)c(CS(=O)(=O)C2=NOC(C)(C)C2)nc2ccccc21 [Compound 23]	40
CCn1c(=O)c(CS(=O)(=O)C2=NOC(C)(C)C2)nc2cccnc21 [Compound 57]	0
CC1(C)CC(S(=O)(=O)Cc2c(C(F)(F)C(F)(F)F)nc3n(c2=O)CCC3)=NO1 [Compound 22]	70
Cc1cc2nc(C(F)(F)F)c(C[S+]([O-])C3=NOC(C)(C)C3)c(=O)n2o1 (centres unmarked) [Compound 50]	0
CC1(C)CC([S+]([O-])Cc2c(C(F)(F)F)nc3n(c2=O)CCCO3)=NO1 (centres unmarked) [Compound 3]	0
CC1(C)CC([S+]([O-])Cc2c(C(F)(F)F)nc3n(c2=O)CCCCC3)=NO1 (centres unmarked) [Compound 34]	0
